Source of measurements: PubChem BioAssay (NCATS)

Listed below: viability (% of control) values for each entry.
Assay: High-throughput drug toxicity screening in the BPDCN cell line Cal-1 (AID 1224825);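 note: cells exposed to compounds for 48 h; 100% = DMSO and 0% = bortezomib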
Conditions: Cal-1 BPDCN cell viability, qHTS; at 45.8 µM (top of the series) unless noted
Source text: Blastic plasmacytoid dendritic cell neoplasm (BPDCN) is a rare, aggressive and largely incurable hematologic malignancy originating from plasmacytoid dendritic cells (pDCs). Although an initial response to chemotherapy is common, BPDCN prognosis is extremely poor and most patients relapse with drug-resistant disease leading to a median overall survival of ~1 year after diagnosis. […]
READOUT_KIND: viability (% of control)

{"COMPOUND": "CC[C@H](NC(C)C)[C@H](O)c1ccc(O)c2[nH]c(=O)ccc12", "ENDPOINT_VALUE": "121%"}
{"COMPOUND": "O=C(O)C1CCCN(CCC=C(c2ccccc2)c2ccccc2)C1 (stereo unspecified)", "ENDPOINT_VALUE": "127%"}
{"COMPOUND": "NC(=O)c1cccnc1", "ENDPOINT_VALUE": "101%"}
{"COMPOUND": "CCCCc1oc2ccc(NS(C)(=O)=O)cc2c1C(=O)c1ccc(OCCCN(CCCC)CCCC)cc1", "ENDPOINT_VALUE": "4.81%"}
{"COMPOUND": "Cn1c(=O)c2c(ncn2CC(O)CO)n(C)c1=O (stereo unspecified)", "ENDPOINT_VALUE": "100%"}
{"COMPOUND": "CC(C)NCC(O)c1ccc(NS(C)(=O)=O)cc1 (stereo unspecified)", "ENDPOINT_VALUE": "120%"}

* * *

Assay: Cellular Toxicity (caspase-3) SHSY5Y (AID 657);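 note: cells exposed to compound for 16 hours at 37 °C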
Settings: SH-SY5Y caspase-3 activation; series mostly up to 91.7 µM
Source text: NIH Chemical Genomics Center [NCGC] NIH Molecular Libraries Screening Centers Network [MLSCN] National Institutes of Environmental Health Sciences [NIEHS] National Toxicology Program [NTP] We have developed a 1536-well cell-based assay for quantitative high throughput screening (qHTS) against a number of cell lines to determine in vitro caspase 3/7 activity of small molecules. […] 8. Detection; Luminescence; Viewlux plate reader […]
Calls of active or inactive are those of the source. Calls come from the whole dose curve; as a rule, active = well fitted activation curve with a large enough effect; inconclusive = small, poorly fitted or top-dose-only effect; inactive = flat fitted curve, though single readings scatter.
READOUT_KIND: outcome

{"TEST_SMILES": "Cc1nnc(NS(=O)(=O)c2ccc(N)cc2)s1", "READOUT_KIND": "outcome", "ENDPOINT_VALUE": "inactive"}
{"TEST_SMILES": "CC[C@H](C)C(=O)O[C@H]1C[C@@H](C)C=C2C=C[C@H](C)[C@H](CC[C@@H]3C[C@@H](O)CC(=O)O3)[C@H]21", "READOUT_KIND": "outcome", "ENDPOINT_VALUE": "inactive"}
{"TEST_SMILES": "CC(=O)[C@H]1CC[C@H]2[C@@H]3CCC4=CC(=O)CC[C@]4(C)[C@H]3CC[C@]12C", "READOUT_KIND": "outcome", "ENDPOINT_VALUE": "inactive"}

* * *

Test: Quantitative high throughput screen for delayed death inhibitors of the malarial parasite plastid, 96 hour incubation (AID 488745);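 note: luciferase-expressing P. falciparum in erythrocytes at 2% hematocrit and 0.1% parasitemia; % is set by controls: 0 for no effect and ±100 for the full control effect; nearly all actives have a fitted effect of over 70% in size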
Conditions: Plasmodium falciparum growth; series mostly up to 28.7 µM
Results filed as inconclusive are left out. The source made the active and inactive calls. Calls come from the whole dose curve; as a rule, active = well fitted inhibition curve with a large enough effect; inconclusive = small, poorly fitted or top-dose-only effect, or effect the other way; inactive = no such curve, though single readings can be large or run the other way.
READOUT_KIND: outcome

{"COMPOUND": "CCN(CC)CC#CCOC(=O)C(O)(c1ccccc1)C1CCCCC1 (stereo not drawn)", "READOUT_KIND": "outcome", "ENDPOINT_VALUE": "inactive"}
{"COMPOUND": "Nc1nc(N)c2nc(CNc3ccc(C(=O)NC(CCC(=O)O)C(=O)O)cc3)cnc2n1 (stereo not drawn)", "READOUT_KIND": "outcome", "ENDPOINT_VALUE": "inactive"}
{"COMPOUND": "CC1=C(C(=O)O)N2C(=O)[C@@H](NC(=O)C(N)c3ccccc3)[C@H]2SC1 (stereo partly drawn)", "READOUT_KIND": "outcome", "ENDPOINT_VALUE": "inactive"}
